# Test Method Notes: Stability of compound in phosphate buffer measured after 24 hrs by LC-MS/MS analysis
# Assay type: physicochemical
# Setup Conditions: read-out: Stability
Test Readout: remaining at 24 h (%)
Your answer should be a plain number; it is taken to be in %.

stdin: Name the reported remaining at 24 h value associated with the compound Cc1ccccc1N(C)C(=O)c1ccc(-c2ccc(OS(N)(=O)=O)cc2)o1
stdout: 40

----------
# Target Or Test System: Steryl-sulfatase (Homo sapiens, UniProt P08842)
# Test Method Notes: Inhibition of STS in human T47D cells using [3H]E1S as substrate measured after 24 hrs by HPLC analysis
# Assay type: cell-based
This listing pairs compounds with measured IC50.
Your answer should be a plain number; it is taken to be in nM.

Here are 8 compounds together with their reported answers.
Smiles Repr	Target Or Test System	Test Readout	Observed Measurement
Cc1ccncc1N(C)C(=O)c1ccc(-c2ccc(OS(N)(=O)=O)cc2)o1	Steryl-sulfatase (Homo sapiens, UniProt P08842)	IC50	820
Cc1cc(F)ccc1N(C)C(=O)c1ccc(-c2ccc(OS(N)(=O)=O)cc2)o1	Steryl-sulfatase (Homo sapiens, UniProt P08842)	IC50	14
Cc1ccccc1N(C)C(=O)c1ccc(-c2cccc(OS(N)(=O)=O)c2)o1	Steryl-sulfatase (Homo sapiens, UniProt P08842)	IC50	690
Cc1ccccc1N(C)C(=O)c1ccc(-c2ccc(OS(N)(=O)=O)cc2F)o1	Steryl-sulfatase (Homo sapiens, UniProt P08842)	IC50	12
Cc1cccnc1N(C)C(=O)c1ccc(-c2ccc(OS(N)(=O)=O)cc2)o1	Steryl-sulfatase (Homo sapiens, UniProt P08842)	IC50	1100
Cc1c(F)cccc1N(C)C(=O)c1ccc(-c2ccc(OS(N)(=O)=O)cc2)o1	Steryl-sulfatase (Homo sapiens, UniProt P08842)	IC50	27
Cc1ccccc1N(C)C(=O)c1csc(-c2ccc(OS(N)(=O)=O)cc2)n1	Steryl-sulfatase (Homo sapiens, UniProt P08842)	IC50	63
Cc1ccccc1N(C)C(=O)c1cnc(-c2ccc(OS(N)(=O)=O)cc2)s1	Steryl-sulfatase (Homo sapiens, UniProt P08842)	IC50	130

stdin: Name the reported IC50 value associated with the compound Cc1ccc(F)cc1N(C)C(=O)c1ccc(-c2ccc(OS(N)(=O)=O)cc2)o1
stdout: 40

stdin: Name the reported IC50 value associated with the compound Cc1ccccc1N(C)C(=O)c1ccc(-c2ccc(OS(N)(=O)=O)cc2)o1
stdout: 28

----------
# Test Method Notes: Metabolic stability in mouse liver S9 fraction assessed as intrinsic clearance at 1 uM in presence of NADPH measured upto 60 min by LC-MS/MS analysis
# Type: ADME, subcellular
# Setup Conditions: s9, 1 h
Test Readout: intrinsic clearance (µL/min/mg)
Your answer should be a plain number; it is taken to be in µL/min/mg.

Smiles Repr	Test Readout	Unit Abbreviation	Observed Measurement
Cc1ccccc1N(C)C(=O)c1ccc(-c2ccc(OS(N)(=O)=O)c(Cl)c2)o1	intrinsic clearance	µL/min/mg	24

stdin: Name the reported intrinsic clearance value associated with the compound Cc1cc(F)ccc1N(C)C(=O)c1ccc(-c2ccc(OS(N)(=O)=O)cc2)o1
stdout: 150

stdin: Name the reported intrinsic clearance value associated with the compound Cc1ccccc1N(C)C(=O)c1coc(-c2ccc(OS(N)(=O)=O)cc2)n1
stdout: 15

stdin: Name the reported intrinsic clearance value associated with the compound Cc1ccccc1N(C)C(=O)c1csc(-c2ccc(OS(N)(=O)=O)cc2)n1
stdout: 46

stdin: Name the reported intrinsic clearance value associated with the compound Cc1ccccc1N(C)C(=O)c1ccc(-c2ccc(OS(N)(=O)=O)cc2F)o1
stdout: 38

stdin: Name the reported intrinsic clearance value associated with the compound O=c1ccc2ccc(O)cc2o1
stdout: 280

stdin: Name the reported intrinsic clearance value associated with the compound Cc1c(F)cccc1N(C)C(=O)c1ccc(-c2ccc(OS(N)(=O)=O)cc2)o1
stdout: 150

stdin: Name the reported intrinsic clearance value associated with the compound Cc1ccccc1N(C)C(=O)c1ccc(-c2ccc(OS(N)(=O)=O)c(F)c2)o1
stdout: 140

stdin: Name the reported intrinsic clearance value associated with the compound Cc1ccccc1N(C)C(=O)c1ccc(-c2ccc(OS(N)(=O)=O)cc2)o1
stdout: 31

stdin: Name the reported intrinsic clearance value associated with the compound Cc1ccccc1N(C)C(=O)c1ccc(-c2ccc(OS(N)(=O)=O)cc2Cl)o1
stdout: 39

stdin: Name the reported intrinsic clearance value associated with the compound Cc1ccc(F)cc1N(C)C(=O)c1ccc(-c2ccc(OS(N)(=O)=O)cc2)o1
stdout: 180

----------
# Target Or Test System: Steryl-sulfatase (Homo sapiens, UniProt P08842)
# Sequence (P08842 whole entry): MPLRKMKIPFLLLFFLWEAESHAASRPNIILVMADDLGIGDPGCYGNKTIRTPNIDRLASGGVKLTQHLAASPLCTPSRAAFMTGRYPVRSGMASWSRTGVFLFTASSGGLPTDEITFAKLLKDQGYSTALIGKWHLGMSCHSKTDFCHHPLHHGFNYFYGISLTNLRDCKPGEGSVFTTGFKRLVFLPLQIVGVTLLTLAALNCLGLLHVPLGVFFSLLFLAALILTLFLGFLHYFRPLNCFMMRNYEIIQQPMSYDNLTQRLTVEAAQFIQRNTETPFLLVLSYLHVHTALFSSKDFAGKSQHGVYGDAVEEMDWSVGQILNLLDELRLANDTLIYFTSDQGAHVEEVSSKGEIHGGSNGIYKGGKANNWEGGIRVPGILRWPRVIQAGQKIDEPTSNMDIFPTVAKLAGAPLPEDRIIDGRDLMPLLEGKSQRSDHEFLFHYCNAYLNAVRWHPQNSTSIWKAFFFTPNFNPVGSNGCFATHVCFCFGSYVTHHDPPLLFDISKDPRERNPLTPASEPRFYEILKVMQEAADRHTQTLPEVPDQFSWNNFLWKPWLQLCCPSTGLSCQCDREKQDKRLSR
# Test Method Notes: Inhibition of STS in human T47D cells using [3H]E1S as substrate measured after 24 hrs by HPLC analysis
# Assay type: cell-based
Test Readout: IC50 (µM)
Your answer should be a plain number; it is taken to be in µM.

Here are 2 molecules together with their reported answers.
Smiles Repr	IC50 [µM]
Cc1ccccc1N(C)C(=O)c1ccc(-c2ccc(OS(N)(=O)=O)cc2Cl)o1	0.027
Cc1ccccc1N(C)C(=O)c1ccc(-c2ccc(OS(N)(=O)=O)c(F)c2)o1	0.017

stdin: Name the reported IC50 value associated with the molecule Cc1ccccc1N(C)C(=O)c1coc(-c2ccc(OS(N)(=O)=O)cc2)n1
stdout: 0.06

----------
# Species on record: Homo sapiens
# Test Method Notes: Selectivity ratio of IC50 for human placental microsomal fraction 17beta-HSD2 to IC50 for human placental cytosolic fraction 17beta-HSD1
This listing pairs compounds with measured Ratio IC50.

Smiles Repr	Observed Measurement
Cc1ccccc1N(C)C(=O)c1ccc(-c2ccccc2O)o1	> 5.2
Cc1ccccc1N(C)C(=O)c1ccc(-c2ccc(O)cc2)o1	51
Cc1ccccc1N(C)C(=O)c1coc(-c2ccc(O)cc2)n1	> 40

stdin: Name the reported Ratio IC50 value associated with the compound Cc1cccnc1N(C)C(=O)c1ccc(-c2ccc(O)cc2)o1
stdout: > 3

----------
# Target Or Test System: 17-beta-hydroxysteroid dehydrogenase type 1 (Homo sapiens, UniProt P14061)
# Sequence (P14061 whole entry): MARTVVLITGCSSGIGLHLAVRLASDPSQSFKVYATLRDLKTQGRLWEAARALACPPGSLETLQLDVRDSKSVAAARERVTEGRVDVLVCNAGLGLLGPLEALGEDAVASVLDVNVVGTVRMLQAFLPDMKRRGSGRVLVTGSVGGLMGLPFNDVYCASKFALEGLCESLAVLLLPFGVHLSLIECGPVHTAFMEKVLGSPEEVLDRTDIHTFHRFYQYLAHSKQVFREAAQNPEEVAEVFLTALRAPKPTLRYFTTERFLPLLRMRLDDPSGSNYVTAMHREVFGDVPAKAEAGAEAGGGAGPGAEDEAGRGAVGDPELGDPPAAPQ
# Test Method Notes: Inhibition of 17beta-HSD1 in human T47D cells using [3H]E1S as substrate measured after 24 hrs by HPLC analysis
# Type: cell-based
This listing pairs compounds with measured IC50.
Your answer should be a plain number; it is taken to be in nM.

Here are 2 compounds together with their reported answers.
Smiles Repr	Unit Abbreviation	Observed Measurement
Cc1ccncc1N(C)C(=O)c1ccc(-c2ccc(O)cc2)o1	nM	64
Cc1ccccc1N(C)C(=O)c1ccc(-c2ccc(O)cc2Cl)o1	nM	14

stdin: Return IC50 measured with 17-beta-hydroxysteroid dehydrogenase type 1 (Homo sapiens, UniProt P14061) given this compound: Cc1ccccc1N(C)C(=O)c1ccc(-c2ccc(O)c(F)c2)o1
stdout: 10

----------
This listing pairs compounds with measured pIC50.
# Target Or Test System: 17-beta-hydroxysteroid dehydrogenase type 2 (Homo sapiens)
# Sequence (P37059 whole entry): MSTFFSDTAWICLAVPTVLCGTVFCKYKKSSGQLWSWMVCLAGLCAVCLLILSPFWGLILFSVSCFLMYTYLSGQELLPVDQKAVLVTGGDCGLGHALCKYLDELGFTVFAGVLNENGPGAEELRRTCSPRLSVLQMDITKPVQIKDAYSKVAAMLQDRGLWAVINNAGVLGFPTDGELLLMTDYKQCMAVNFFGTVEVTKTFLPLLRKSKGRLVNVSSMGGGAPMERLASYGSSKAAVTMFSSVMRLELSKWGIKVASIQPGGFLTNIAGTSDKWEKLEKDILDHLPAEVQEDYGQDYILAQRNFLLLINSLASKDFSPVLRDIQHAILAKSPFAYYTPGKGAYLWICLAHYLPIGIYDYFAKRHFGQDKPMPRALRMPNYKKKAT
# Test Method Notes: Inhibition of human placental microsomal fraction 17beta-HS2 using [3H]-E2 as substrate in presence of NAD+ measured after 10 mins by HPLC method
pIC50: −log10 of the molar value.

Here are 5 compounds together with their reported answers.
Smiles Repr	Target Or Test System	pIC50
Cc1ccccc1N(C)C(=O)c1ccc(-c2ccccc2O)o1	17-beta-hydroxysteroid dehydrogenase type 2 (Homo sapiens)	< 5.00
Cc1cccnc1N(C)C(=O)c1ccc(-c2ccc(O)cc2)o1	17-beta-hydroxysteroid dehydrogenase type 2 (Homo sapiens)	< 5.00
Cc1ncccc1N(C)C(=O)c1ccc(-c2ccc(O)cc2)o1	17-beta-hydroxysteroid dehydrogenase type 2 (Homo sapiens)	< 4.52
Cc1ccncc1N(C)C(=O)c1ccc(-c2ccc(O)cc2)o1	17-beta-hydroxysteroid dehydrogenase type 2 (Homo sapiens)	< 4.70
Cc1c(F)cccc1N(C)C(=O)c1ccc(-c2ccc(O)cc2)o1	17-beta-hydroxysteroid dehydrogenase type 2 (Homo sapiens)	5.41

stdin: Name the reported pIC50 value associated with the compound Cc1ccccc1N(C)C(=O)c1ccc(-c2cccc(O)c2)o1
stdout: 5.55

stdin: Name the reported pIC50 value associated with the compound Cc1ccccc1N(C)C(=O)c1cnc(-c2ccc(O)cc2)s1
stdout: 5.35

stdin: Name the reported pIC50 value associated with the compound Cc1ccccc1N(C)C(=O)c1coc(-c2ccc(O)cc2)n1
stdout: < 5.00
